- System: OVCAR4
- assay_text: Euclidean distance of Cell Painting phenotypic profile (signed KS, 77 features) to DMSO centroid (dimensionless distance); 5 or 10 uM (library dependent); higher = stronger phenotypic change vs DMSO (phenoactivity)
- cond: 48 h
Where a name gives a salt, the structure may show the parent alone.
Measured Euclidean distance values are reported for all entries that follow.
measurement_name: Euclidean distance

[[record]]
compound = "CC1(C)S[C@@H]2[C@H](NC(=O)[C@H](N)c3ccc(O)cc3)C(=O)N2[C@H]1C(=O)O [Amoxicillin]"
target_under_test = "OVCAR4"
experimental_result = 1.22

[[record]]
compound = "CNC1(C)C2CCC(C2)C1(C)C (centres undefined) [Mecamylamine Hydrochloride]"
target_under_test = "OVCAR4"
experimental_result = 1.18

[[record]]
compound = "CCCc1cc(=O)[nH]c(=S)[nH]1"
target_under_test = "OVCAR4"
experimental_result = 1.77

[[record]]
compound = "O=C(O)c1ccccn1"
target_under_test = "OVCAR4"
experimental_result = 0.799

[[record]]
compound = "CN1CCCC(n2nc(Cc3ccc(Cl)cc3)c3ccccc3c2=O)CC1 (centres undefined) [Azelastine HCl]"
target_under_test = "OVCAR4"
experimental_result = 0.789

[[record]]
compound = "O=C(CSc1nc2c(c(=O)n1-c1ccccc1)SCC2)Nc1ccc(-c2ccccc2)cn1"
target_under_test = "OVCAR4"
experimental_result = 0.588

[[record]]
compound = "COc1cccc(Nc2c(C(N)=O)cnc3c(C)cc(S(=O)(=O)c4cccc(C(=O)N(C)C)c4)cc23)c1"
target_under_test = "OVCAR4"
experimental_result = 1.48

[[record]]
compound = "Cc1ccc(C(=O)Nc2ccc(Oc3cc4cnn(C)c4cc3-c3cn[nH]c3)c(F)c2)c(=O)n1-c1ccc(F)cc1"
target_under_test = "OVCAR4"
experimental_result = 1.67

[[record]]
compound = "CC12CCC(CC1=O)C2(C)C (centres undefined)"
target_under_test = "OVCAR4"
experimental_result = 1.67

